# System: UACC-62
# measurement-description: NCI 60 five-dose screen UACC-62
# Type: cell-based
# condition-parameters: Homo sapiens, five-dose
Attribute: GI50
measurement-name: GI50 (µM)

compound | output-unit | observed-measurement
FC(F)(F)c1cc2c(Cl)ncnc2n1CCN1CCCCC1 | µM | 12
FC(F)(F)c1cc2c(Cl)ncnc2n1CCC1CCOCC1 | µM | 4.27
OC1CCC(Cn2c(C(F)(F)F)cc3c(Cl)ncnc32)CC1 (centres unmarked) | µM | 5.37
FC(F)(F)c1cc2c(Cl)ncnc2n1CCN1CCOCC1 | µM | 10.7
FC(F)(F)CN1CCN(CCn2c(C(F)(F)F)cc3c(Cl)ncnc32)CC1 | µM | 4.68

---

Attribute: GI50
# System: HCT-116
# measurement-description: NCI 60 five-dose screen HCT-116
# Assay type: cell-based
# condition-parameters: Homo sapiens, five-dose

compound | test-target | GI50
OC1CCC(Cn2c(C(F)(F)F)cc3c(Cl)ncnc32)CC1 (centres unmarked) | HCT-116 | 3.55 µM
FC(F)(F)CN1CCN(CCn2c(C(F)(F)F)cc3c(Cl)ncnc32)CC1 | HCT-116 | 3.16 µM
FC(F)(F)c1cc2c(Cl)ncnc2n1CCC1CCOCC1 | HCT-116 | 2.34 µM
FC(F)(F)c1cc2c(Cl)ncnc2n1CCN1CCCCC1 | HCT-116 | 4.9 µM
FC(F)(F)c1cc2c(Cl)ncnc2n1CCN1CCOCC1 | HCT-116 | 4.68 µM

---

Attribute: IC50
# System: NCI-H522
# measurement-description: NCI 60 five-dose screen NCI-H522
# Type: cell-based
# condition-parameters: Homo sapiens
measurement-name: IC50 (µM)

compound | measurement-name | output-unit | observed-measurement
Fc1ccc(N2CC(Cn3c(C(F)(F)F)cc4c(Cl)ncnc43)C2)c(F)c1 [NUCC-0226695] | IC50 | µM | 3.47
O=c1ccc(Cn2c(C(F)(F)F)cc3c(Cl)ncnc32)c[nH]1 [NUCC-0226698] | IC50 | µM | 3.98
COc1cc(Cn2c(C(F)(F)F)cc3c(Cl)ncnc32)ccn1 [NUCC-0226694] | IC50 | µM | 11

---

# Tested on: HCT-15
# measurement-description: NCI 60 five-dose screen HCT-15
# Format: cell-based
# condition-parameters: Homo sapiens, five-dose

molecule | test-target | GI50
OC1CCC(Cn2c(C(F)(F)F)cc3c(Cl)ncnc32)CC1 (centres unmarked) | HCT-15 | 3.72 µM
FC(F)(F)c1cc2c(Cl)ncnc2n1CCC1CCOCC1 | HCT-15 | 2.95 µM
FC(F)(F)c1cc2c(Cl)ncnc2n1CCN1CCCCC1 | HCT-15 | 3.16 µM
FC(F)(F)c1cc2c(Cl)ncnc2n1CCN1CCOCC1 | HCT-15 | 3.31 µM
FC(F)(F)CN1CCN(CCn2c(C(F)(F)F)cc3c(Cl)ncnc32)CC1 | HCT-15 | 2.57 µM

---

Attribute: CC50
# System: U251
# measurement-description: NCI 60 five-dose screen U251
# Assay type: cell-based
# condition-parameters: Homo sapiens, U-251, five-dose, read-out: LC50 (the source's name) (converted)

compound | CC50
FC(F)(F)c1cc2c(Cl)ncnc2n1CCN1CCOCC1 | ≥ 100 µM
FC(F)(F)c1cc2c(Cl)ncnc2n1CCC1CCOCC1 | 28.2 µM
OC1CCC(Cn2c(C(F)(F)F)cc3c(Cl)ncnc32)CC1 (centres unmarked) | 44.7 µM
FC(F)(F)CN1CCN(CCn2c(C(F)(F)F)cc3c(Cl)ncnc32)CC1 | 24 µM
FC(F)(F)c1cc2c(Cl)ncnc2n1CCN1CCCCC1 | 87.1 µM

---

# System: SNB-75
# measurement-description: NCI 60 five-dose screen SNB-75
# Type: cell-based
# condition-parameters: Homo sapiens, five-dose
pIC50: −log10 of the molar value.
measurement-name: pIC50

compound | test-target | observed-measurement
FC(F)(F)c1cc2c(Cl)ncnc2n1CCN1CCCCC1 [NUCC-0226679] | SNB-75 | 4.64
FC(F)(F)c1cc2c(Cl)ncnc2n1CCN1CCOCC1 [NUCC-0226680] | SNB-75 | 4.63
FC(F)(F)c1cc2c(Cl)ncnc2n1CCC1CCOCC1 [NUCC-0226674] | SNB-75 | 4.81
FC(F)(F)CN1CCN(CCn2c(C(F)(F)F)cc3c(Cl)ncnc32)CC1 [NUCC-0226683] | SNB-75 | 4.83
OC1CCC(Cn2c(C(F)(F)F)cc3c(Cl)ncnc32)CC1 (centres unmarked) [NUCC-0226689] | SNB-75 | 4.63

---

# System: NCI-H322M
# measurement-description: NCI 60 five-dose screen NCI-H322M
# Assay type: cell-based
# condition-parameters: Homo sapiens

compound | output-unit | IC50
COc1cc(Cn2c(C(F)(F)F)cc3c(Cl)ncnc32)ccn1 [NUCC-0226694] | µM | 3.16
O=c1ccc(Cn2c(C(F)(F)F)cc3c(Cl)ncnc32)c[nH]1 [NUCC-0226698] | µM | 32.4
Fc1ccc(N2CC(Cn3c(C(F)(F)F)cc4c(Cl)ncnc43)C2)c(F)c1 [NUCC-0226695] | µM | 20.4

---

Attribute: pIC50
# System: NCI-H23
# measurement-description: NCI 60 five-dose screen NCI-H23
# Format: cell-based
# condition-parameters: Homo sapiens, five-dose
pIC50: −log10 of the molar value.

molecule | test-target | pIC50
FC(F)(F)c1cc2c(Cl)ncnc2n1CCN1CCOCC1 | NCI-H23 | 4.43
FC(F)(F)c1cc2c(Cl)ncnc2n1CCC1CCOCC1 | NCI-H23 | 5.31
FC(F)(F)CN1CCN(CCn2c(C(F)(F)F)cc3c(Cl)ncnc32)CC1 | NCI-H23 | 4.83
OC1CCC(Cn2c(C(F)(F)F)cc3c(Cl)ncnc32)CC1 (centres unmarked) | NCI-H23 | 5.26
FC(F)(F)c1cc2c(Cl)ncnc2n1CCN1CCCCC1 | NCI-H23 | 4.55

---

# Test system: HOP-62
# measurement-description: NCI 60 five-dose screen HOP-62
# Type: cell-based
# condition-parameters: Homo sapiens
Attribute: IC50

compound | output-unit | IC50
COc1cc(Cn2c(C(F)(F)F)cc3c(Cl)ncnc32)ccn1 [NUCC-0226694] | µM | 27.5
O=c1ccc(Cn2c(C(F)(F)F)cc3c(Cl)ncnc32)c[nH]1 [NUCC-0226698] | µM | 100
Fc1ccc(N2CC(Cn3c(C(F)(F)F)cc4c(Cl)ncnc43)C2)c(F)c1 [NUCC-0226695] | µM | 32.4

---

# System: HL-60(TB)
# measurement-description: NCI 60 five-dose screen HL-60(TB)
# Assay type: cell-based
# condition-parameters: Homo sapiens, five-dose, read-out: LC50 (the source's name) (converted)
Attribute: CC50
measurement-name: CC50 (µM)

compound | test-target | relational-operator | observed-measurement
OC1CCC(Cn2c(C(F)(F)F)cc3c(Cl)ncnc32)CC1 (centres unmarked) | HL-60(TB) | ≥ | 100
FC(F)(F)c1cc2c(Cl)ncnc2n1CCC1CCOCC1 | HL-60(TB) | = | 44.7
FC(F)(F)c1cc2c(Cl)ncnc2n1CCN1CCOCC1 | HL-60(TB) | = | 66.1
FC(F)(F)CN1CCN(CCn2c(C(F)(F)F)cc3c(Cl)ncnc32)CC1 | HL-60(TB) | ≥ | 100
FC(F)(F)c1cc2c(Cl)ncnc2n1CCN1CCCCC1 | HL-60(TB) | ≥ | 100

---

# System: HOP-62
# measurement-description: NCI 60 five-dose screen HOP-62
# Assay type: cell-based
# condition-parameters: Homo sapiens, five-dose
measurement-name: GI50 (µM)

compound | measurement-name | observed-measurement
FC(F)(F)c1cc2c(Cl)ncnc2n1CCN1CCOCC1 | GI50 | 38.9
FC(F)(F)c1cc2c(Cl)ncnc2n1CCN1CCCCC1 | GI50 | 38
FC(F)(F)c1cc2c(Cl)ncnc2n1CCC1CCOCC1 | GI50 | 17
OC1CCC(Cn2c(C(F)(F)F)cc3c(Cl)ncnc32)CC1 (centres unmarked) | GI50 | 20
FC(F)(F)CN1CCN(CCn2c(C(F)(F)F)cc3c(Cl)ncnc32)CC1 | GI50 | 13.8

---

Attribute: IC (TGI)
# System: NCI-H522
# measurement-description: NCI 60 five-dose screen NCI-H522
# Type: cell-based
# condition-parameters: Homo sapiens, five-dose
measurement-name: IC (TGI) (µM)

molecule | measurement-name | observed-measurement
FC(F)(F)c1cc2c(Cl)ncnc2n1CCN1CCOCC1 | IC (TGI) | 3.31
FC(F)(F)c1cc2c(Cl)ncnc2n1CCN1CCCCC1 | IC (TGI) | 3.47
OC1CCC(Cn2c(C(F)(F)F)cc3c(Cl)ncnc32)CC1 (centres unmarked) | IC (TGI) | 3.55
FC(F)(F)CN1CCN(CCn2c(C(F)(F)F)cc3c(Cl)ncnc32)CC1 | IC (TGI) | 3.55
FC(F)(F)c1cc2c(Cl)ncnc2n1CCC1CCOCC1 | IC (TGI) | 3.72
